Target: μ-opioid receptor (MOR) (Rattus norvegicus)
Construct: All assay tubes contained 100 μL homogenate suspension
Sequence (P33535 whole entry): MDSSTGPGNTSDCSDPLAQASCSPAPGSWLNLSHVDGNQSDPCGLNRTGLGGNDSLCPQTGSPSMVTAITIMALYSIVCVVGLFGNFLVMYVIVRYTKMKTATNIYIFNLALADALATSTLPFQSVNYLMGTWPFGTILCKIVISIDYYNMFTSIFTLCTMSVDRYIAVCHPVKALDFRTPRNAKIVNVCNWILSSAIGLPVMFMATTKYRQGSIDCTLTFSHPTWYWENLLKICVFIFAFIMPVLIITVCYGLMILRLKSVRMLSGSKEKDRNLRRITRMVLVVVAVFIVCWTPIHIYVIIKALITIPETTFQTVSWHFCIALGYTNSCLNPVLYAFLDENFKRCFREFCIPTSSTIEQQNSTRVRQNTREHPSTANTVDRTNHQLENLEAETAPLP
Assay: Opioid receptor binding, MOR ([3H]DAMGO), rat brain homogenate
Details: [3H]DAMGO, whole rat brains excluding cerebellum; read-out: MOR Binding (Ki ± SEM)

# compound, target entity, Ki [nM]
measured = [
    ("Oc1cccc2c1O[C@H]1CN(C[C@@H]3C[C@H]3c3ccccc3)[C@H]3CCC[C@@]21C3 [(-)-16]", "μ-opioid receptor (MOR) (Rattus norvegicus)", 109),
    ("Oc1cccc2c1O[C@H]1CN(C[C@H]3C[C@H]3c3ccccc3)[C@H]3CCC[C@@]21C3 [(+)-19]", "μ-opioid receptor (MOR) (Rattus norvegicus)", 52.4),
    ("Oc1cccc2c1O[C@H]1CN(C[C@H]3C[C@@H]3c3ccccc3)[C@H]3CCC[C@@]21C3 [(+)-17]", "μ-opioid receptor (MOR) (Rattus norvegicus)", 11.9),
    ("Oc1cccc2c1O[C@H]1CN(CCc3ccccc3)[C@H]3CCC[C@@]21C3 [(-)-1]", "μ-opioid receptor (MOR) (Rattus norvegicus)", 1.11),
]

###

Target: UniProt:P33261
Sequence (P33261 whole entry): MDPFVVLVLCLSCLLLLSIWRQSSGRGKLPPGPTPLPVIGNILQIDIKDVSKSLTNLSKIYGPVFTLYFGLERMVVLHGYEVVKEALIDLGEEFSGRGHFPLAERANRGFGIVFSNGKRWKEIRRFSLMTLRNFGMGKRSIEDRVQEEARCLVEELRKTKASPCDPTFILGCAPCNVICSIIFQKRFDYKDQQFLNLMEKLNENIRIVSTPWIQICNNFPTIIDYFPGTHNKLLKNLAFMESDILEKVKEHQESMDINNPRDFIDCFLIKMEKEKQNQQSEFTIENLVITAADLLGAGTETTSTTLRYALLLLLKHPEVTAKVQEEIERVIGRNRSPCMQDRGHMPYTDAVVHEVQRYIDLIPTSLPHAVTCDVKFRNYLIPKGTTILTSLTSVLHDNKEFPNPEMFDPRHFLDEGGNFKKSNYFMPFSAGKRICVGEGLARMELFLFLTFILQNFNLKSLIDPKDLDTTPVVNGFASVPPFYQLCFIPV
Experiment: in vitro
Conditions: microsomes

# compound, unit symbol, inhibition at 10 µM
measured = [
    ("Oc1cccc2c1O[C@H]1CN(C[C@H]3C[C@@H]3c3ccccc3)[C@H]3CCC[C@@]21C3 [(+)-17]", "%", 46.6),
    ("O=C1CC[C@@]2(O)[C@H]3Cc4ccc(O)c5c4[C@@]2(CCN3CC2CC2)[C@H]1O5 [Naltrexone]", "%", 0),
]

###

Assay: Microsomal metabolic stability, mouse liver microsomes
Conditions: MLM 0.5, no co-factor (no NADPH)
property name: Remaining (NCF = 60 min) (%)

# molecule, endpoint value
data = [
    ("O=C(O)Cc1ccccc1Nc1c(Cl)cccc1Cl", 99.4),
    ("Oc1cccc2c1O[C@H]1CN(C[C@H]3C[C@@H]3c3ccccc3)[C@H]3CCC[C@@]21C3 [(+)-17]", 94.4),
    ("C[C@]12CC[C@H]3[C@@H](CCC4=CC(=O)CC[C@@]43C)[C@@H]1CC[C@@H]2O", 97.1),
    ("O=C1CC[C@@]2(O)[C@H]3Cc4ccc(O)c5c4[C@@]2(CCN3CC2CC2)[C@H]1O5 [Naltrexone]", 84.3),
]

###

Molecular target: CYP1A2 (Homo sapiens, UniProt P05177)
Sequence (P05177 1-516): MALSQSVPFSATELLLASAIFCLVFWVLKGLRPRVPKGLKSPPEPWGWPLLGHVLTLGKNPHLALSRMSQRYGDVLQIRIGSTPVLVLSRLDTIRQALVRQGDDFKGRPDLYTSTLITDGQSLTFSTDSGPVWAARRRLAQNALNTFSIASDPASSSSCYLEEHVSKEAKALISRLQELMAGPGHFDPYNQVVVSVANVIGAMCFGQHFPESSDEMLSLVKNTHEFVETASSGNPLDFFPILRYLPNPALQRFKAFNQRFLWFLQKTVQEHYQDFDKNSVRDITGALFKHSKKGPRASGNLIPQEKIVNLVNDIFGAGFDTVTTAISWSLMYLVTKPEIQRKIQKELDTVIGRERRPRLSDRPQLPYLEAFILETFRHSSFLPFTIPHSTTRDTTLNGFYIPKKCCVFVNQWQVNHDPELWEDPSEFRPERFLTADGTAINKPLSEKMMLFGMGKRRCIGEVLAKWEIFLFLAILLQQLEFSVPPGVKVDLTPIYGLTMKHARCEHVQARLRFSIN
Assay: P450 inhibition, human liver microsomal CYP1A2
Conditions: microsomes
Parameter inhibition at 10 µM: see the listing below.
property name: inhibition at 10 µM (%)

# compound, endpoint value
measured = [
    ("O=c1cc(-c2ccccc2)oc2c1ccc1ccccc12 [α-Naphthoflavone, reference compound]", 88.3),
    ("Oc1cccc2c1O[C@H]1CN(C[C@H]3C[C@@H]3c3ccccc3)[C@H]3CCC[C@@]21C3 [(+)-17]", 6.8),
]
